# Tested on: Blumeria graminis f. sp. tritici
# ASSAY TEXT: Test C: test suspension sprayed on wheat seedlings, inoculated next day with Blumeria graminis f. sp. tritici (wheat powdery mildew); visual disease rating (100 = 100% disease control, 0 = no control; dash = not tested)
# Assay type: in vivo
# MEASUREMENT SETUP: 250 ppm
Rule: satisfied for Test C disease control rating not less than 60%, not satisfied for anything less.

Sample answers from the record:
# MOLECULE, ASSIGNED CATEGORY
records = [
    ("CCn1nc(-c2c(F)cccc2F)c(-c2c(F)cccc2F)cc1=O [Compound 23]", "not satisfied"),
    ("Cn1nc(-c2ccccc2)c(-c2c(F)cccc2F)c(Cl)c1=O [Compound 193]", "satisfied"),
    ("COc1ccc(-c2nn(C)c(=O)cc2-c2c(F)cccc2F)c(F)c1 [Compound 192]", "satisfied"),
]

Can COc1cc(OC)cc(C2=NN(C)C(=O)CC2c2ccc(F)cc2Cl)c1 (stereo not drawn) [Compound 20] be said to have Test C disease control rating at or above 60%? not satisfied

Can CCn1nc(-c2c(Cl)c(OC)cc(OC)c2Cl)c(-c2c(F)cccc2F)cc1=O [Compound 2] be said to have Test C disease control rating at or above 60%? not satisfied

Can Cn1nc(-c2cc(F)ccc2Cl)c(-c2c(F)cccc2F)cc1=O [Compound 28] be said to have Test C disease control rating at or above 60%? satisfied

Can CCn1nc(-c2ccc(F)cc2Cl)c(-c2ccc(F)cc2Cl)cc1=O [Compound 11] be said to have Test C disease control rating at or above 60%? satisfied

Can CCN1N=C(c2cc(OC)cc(OC)c2)C(c2ccc(F)cc2Cl)CC1=O (stereo not drawn) [Compound 19] be said to have Test C disease control rating at or above 60%? not satisfied

====

# Tested on: Blumeria graminis f. sp. tritici
# ASSAY TEXT: Test C: test suspension sprayed on wheat seedlings, inoculated next day with Blumeria graminis f. sp. tritici (wheat powdery mildew); visual disease rating (100 = 100% disease control, 0 = no control; dash = not tested)
# Type: in vivo
# MEASUREMENT SETUP: 50 ppm
# Experimental: The resulting test suspensions were then used in Tests A-F. The test suspension was sprayed to the point of run-off on wheat seedlings. The following day the seedlings were inoculated with a spore dust of Blumeria graminis f. sp. tritici, (also known as Erysiphe graminis f. sp. tritici, the causal agent of wheat powdery mildew) and incubated in a growth chamber at 20° C. for 8 days, after which time visual disease ratings were made. […]
Could you please report measured Test C disease control rating for the items listed next?
Answers are plain numbers, in %.

# MOLECULE, OBSERVED PROPERTY, OBS VALUE
data = [
    ("CCn1nc(-c2cc(OC)cc(OC)c2Cl)c(-c2c(F)cccc2F)c(OC)c1=O [Compound 75]", "Test C disease control rating", 98),
    ("CCOc1ccc(Cl)c(-c2nn(C)c(=O)c(C)c2-c2ccc(F)cc2Cl)c1 [Compound 175]", "Test C disease control rating", 99),
    ("CCn1nc(-c2cc(OC)cc(OC)c2Br)c(-c2c(F)cccc2F)c(C#N)c1=O [Compound 100]", "Test C disease control rating", 99),
    ("COc1ccc(-c2nn(C)c(=O)c(OC)c2-c2ccc(F)cc2Cl)c(F)c1 [Compound 166]", "Test C disease control rating", 79),
]

Okay, here is my list. What is Test C disease control rating for each of these?
1. CCc1c(-c2c(F)cccc2F)c(-c2cccc(OC)c2Cl)nn(C)c1=O [Compound 178]
2. Cn1nc(-c2ccc(F)cc2Cl)c(-c2ccc(F)cc2Cl)c(Cl)c1=O [Compound 60]

100
99

Okay, here is my list. What is Test C disease control rating for each of these?
1. COc1c(-c2ccc(F)cc2Cl)c(-c2ccccc2Cl)nn(C)c1=O [Compound 160]
2. Cn1nc(-c2cccc(F)c2Cl)c(-c2ccc(F)cc2Cl)c(Cl)c1=O [Compound 145]

[100, 100]
